target: human M2 receptor (Homo sapiens, UniProt P08172); conditions: Receptor activity EC50, allosteric potency at EC20 acetylcholine; M2-GIRK1/4 reporter cells; in some cases mean of two or more determinations
recorded_endpoint: EC50 (µM)

Completed entries (count: 5):
molecule=CC(C)[C@@H](C)NC(=O)c1cn(-c2c(F)cc(F)cc2F)c2nc(N3C[C@@H](O)[C@H](O)C3)ccc2c1=O recorded_endpoint=EC50 reported_value=0.054
molecule=COC1(C)CN(c2ccc3c(=O)c(C(=O)NC45CC(C4)C5)cn(-c4c(F)cc(F)cc4F)c3n2)C1 recorded_endpoint=EC50 reported_value=0.071
molecule=O=C(NC12CC(C1)C2)c1cn(-c2c(F)cc(F)cc2F)c2nc(N3CCNC3=O)ccc2c1=O recorded_endpoint=EC50 reported_value=0.089
molecule="O=C(N[C@@H](C1CC1)C(F)(F)F)c1cn(-c2c(F)cc(F)cc2F)c2nc(N3CC(O)C4(CC4)C3)ccc2c1=O (mixture of isomers) [Example 600]" recorded_endpoint=EC50 reported_value=0.028
molecule="O=C(NC(CC(F)(F)F)C1CC1)c1cn(-c2c(F)cc(F)cc2F)c2nc(N3C[C@@H](O)[C@H](O)C3)ccc2c1=O (single isomer, unassigned) [Example 439]" recorded_endpoint=EC50 reported_value=0.02

(1) COC(=O)N1CCN(c2ccc3c(=O)c(C(=O)NC(C)(C)CC(F)(F)F)cn(-c4c(F)cc(F)cc4F)c3n2)CC1
(2) CO[C@H]1CCN(c2ccc3c(=O)c(C(=O)N[C@@H](C4CC4)C(F)(F)F)cn(-c4c(F)cc(F)cc4F)c3n2)C1
In the pair 1 and 2 , the larger recorded EC50 belongs to which? Record your answer as the label of the chosen record.
1

----------
target: human M2 receptor (Homo sapiens, UniProt P08172); settings: Receptor activity EC50, M2-GIRK1/4 activation test, acetylcholine at EC20; allosteric potency; in some cases mean values from two or more determinations
recorded_endpoint: EC50 (nM)

compound=O=C(NC12CC3CC(CC(C3)C1)C2)c1cn(-c2ccc(F)cc2F)c2nc(NCC(F)F)ccc2c1=O readout_unit=nM reported_value=62

(P) O=C(N[C@@H](C1CC1)C(F)(F)F)c1cn(-c2ccc(F)cc2F)c2nc(N3C[C@@H](O)CC3=O)ccc2c1=O (single isomer, unassigned)
(Q) CC(C)Nc1ccc2c(=O)c(C(=O)NC34CCC(CC3)CC4)cn(-c3ccc(F)cc3F)c2n1
Problem: Given the entries P and Q , determine which has the lower reported EC50. Record your answer as the label of the chosen record.
P

----------
biological target: human M2 receptor (Homo sapiens, UniProt P08172); conditions: Receptor activity EC50, allosteric potency at EC20 acetylcholine; M2-GIRK1/4 reporter cells; in some cases mean of two or more determinations
pEC50: −log10 of the molar value.
recorded_endpoint: pEC50

Completed entries (count: 3):
compound="CC[C@@H](NC(=O)c1cn(-c2ccc(F)cc2F)c2nc(N3CCC(C)C3=O)ccc2c1=O)C(F)(F)F (stereo partly shown) [Example 431]" subject_of_test="human M2 receptor (Homo sapiens, UniProt P08172)" reported_value=7.04
compound="O=C(N[C@@H](C1CC1)C(F)(F)F)c1cn(-c2c(F)cc(F)cc2F)c2nc(N3CCC(F)(CO)CC3)ccc2c1=O [Example 461]" subject_of_test="human M2 receptor (Homo sapiens, UniProt P08172)" reported_value=7.41
compound="O=C(N[C@H](C1CC1)C(F)(F)F)c1cn(-c2c(F)cccc2F)c2nc(N3CCNC3=O)ccc2c1=O [Example 629]" subject_of_test="human M2 receptor (Homo sapiens, UniProt P08172)" reported_value=7.36

(1) O=C(Nc1c(Cl)cccc1Cl)c1cn(-c2c(F)cc(F)cc2F)c2nc(N3CCNC3=O)ccc2c1=O [Example 613]
(2) CC[C@H](NC(=O)c1cn(-c2c(F)cc(F)cc2F)c2nc(NC(C)(C)C)ccc2c1=O)C(F)(F)F [Example 499]
(3) CC1(C)CN(c2ccc3c(=O)c(C(=O)N[C@@H](C4CC4)C(F)(F)F)cn(-c4c(F)cc(F)cc4F)c3n2)C(=O)N1 [Example 451]
(4) C[C@H](NC(=O)c1cn(-c2c(F)cc(F)cc2Cl)c2nc(N3C[C@@H](O)CC3=O)ccc2c1=O)C(F)(F)F [Example 409]
Put these in order: smallest pEC50 first, largest last. Sort and list the labels as requested.
2, 1, 4, 3

----------
molecular target: human M2 receptor (Homo sapiens); details: Receptor activity EC50, M2-GIRK1/4 activation test, acetylcholine at EC20; allosteric potency; in some cases mean values from two or more determinations
pEC50: −log10 of the molar value.
recorded_endpoint: pEC50

Completed entries (count: 5):
compound="CCCC(NC(=O)c1cn(-c2ccc(F)cc2F)c2nc(N(C)CCF)ccc2c1=O)C(F)(F)F (centres unmarked)" subject_of_test="human M2 receptor (Homo sapiens)" recorded_endpoint=pEC50 reported_value=7.49
compound=O=C(NC1(C(F)(F)F)CCCC1)c1cn(-c2c(F)cc(F)cc2F)c2nc(N3C[C@@H](O)[C@H](O)C3)ccc2c1=O subject_of_test="human M2 receptor (Homo sapiens)" recorded_endpoint=pEC50 reported_value=8.22
compound=O=C(NC12CC3CC(CC(C3)C1)C2)c1cn(-c2ccc(F)cc2F)c2nc(N3CCC3=O)ccc2c1=O subject_of_test="human M2 receptor (Homo sapiens)" recorded_endpoint=pEC50 reported_value=7.22
compound=CC(C)(CC(F)(F)F)NC(=O)c1cn(-c2c(F)cc(F)cc2F)c2nc(N3CCCN(CCO)C3=O)ccc2c1=O subject_of_test="human M2 receptor (Homo sapiens)" recorded_endpoint=pEC50 reported_value=7.74
compound="CC[C@@H](NC(=O)c1cn(-c2ccc(F)cc2F)c2nc(N3CCC(C)(O)C3=O)ccc2c1=O)C(F)(F)F (mixture of isomers) [Example 194]" subject_of_test="human M2 receptor (Homo sapiens)" recorded_endpoint=pEC50 reported_value=6.85

(P) CN(C)c1ccc2c(=O)c(C(=O)NC(c3c(Cl)cccc3Cl)C(F)(F)F)cn(-c3ccc(F)cc3F)c2n1 (racemic)
(Q) CC[C@H](NC(=O)c1cn(-c2ccc(F)cc2F)c2nc(N3C[C@@H](C(=O)OC)OC3=O)ccc2c1=O)C(F)(F)F
Problem: Given the entries P and Q , determine which has the lower reported pEC50. Record your answer as the label of the chosen record.
Q

----------
Biological target: human M2 receptor (Homo sapiens, UniProt P08172)
Sequence (P08172 1-466): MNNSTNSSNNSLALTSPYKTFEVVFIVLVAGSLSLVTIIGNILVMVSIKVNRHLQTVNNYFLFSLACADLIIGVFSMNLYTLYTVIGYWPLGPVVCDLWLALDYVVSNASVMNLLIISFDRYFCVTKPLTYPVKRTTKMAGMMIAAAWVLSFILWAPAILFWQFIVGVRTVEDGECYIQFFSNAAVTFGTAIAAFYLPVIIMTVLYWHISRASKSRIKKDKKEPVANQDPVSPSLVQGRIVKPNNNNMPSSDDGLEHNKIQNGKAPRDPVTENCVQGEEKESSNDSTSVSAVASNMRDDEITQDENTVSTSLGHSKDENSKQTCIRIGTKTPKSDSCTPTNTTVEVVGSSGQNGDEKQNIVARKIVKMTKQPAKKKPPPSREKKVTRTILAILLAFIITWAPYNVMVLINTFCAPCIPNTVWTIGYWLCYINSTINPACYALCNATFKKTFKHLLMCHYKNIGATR
Details: Receptor activity EC50, M2-GIRK1/4 activation test, acetylcholine at EC20; allosteric potency; in some cases mean values from two or more determinations
pEC50: −log10 of the molar value.
recorded_endpoint: pEC50

Completed entries (count: 3):
molecule="CN(C)c1ccc2c(=O)c(C(=O)NC(C(C)(C)C)C(F)(F)F)cn(-c3ccc(F)cc3F)c2n1 (stereo in doubt)" recorded_endpoint=pEC50 reported_value=8.00
molecule=O=C(NC12CC3CC(CC(C3)C1)C2)c1cn(-c2ccc(F)cc2F)c2nc(N3CC[C@@H](F)[C@H](O)C3)ccc2c1=O recorded_endpoint=pEC50 reported_value=7.77
molecule="CC[C@@H](NC(=O)c1cn(-c2c(F)cc(F)cc2F)c2nc(N3CCC(O)C3=O)ccc2c1=O)C(F)(F)F (single isomer, unassigned) [Example 281]" recorded_endpoint=pEC50 reported_value=7.47

(1) O=C(N[C@@H](C1CC1)C(F)(F)F)c1cn(-c2c(F)cc(F)cc2F)c2nc(N3CCOC3=O)ccc2c1=O
(2) O=C(N[C@H](c1ccccc1Cl)C(F)(F)F)c1cn(-c2ccc(F)cc2F)c2nc(N3CCCC(O)C3=O)ccc2c1=O (single isomer, unassigned) [Example 208]
Problem: Given the entries 1 and 2 , determine which has the lower reported pEC50. Record your answer as the label of the chosen record.
2
(2: 6.94, 1: 7.31)

(P) CN(CCF)c1ccc2c(=O)c(C(=O)NC(C(F)(F)F)C(F)(F)F)cn(-c3ccc(F)cc3F)c2n1
(Q) CC(C)(CC(F)(F)F)NC(=O)c1cn(-c2c(F)cc(F)cc2Cl)c2nc(N3C[C@@H](O)[C@H](O)C3)ccc2c1=O (single isomer, unassigned) [Example 393]
In the pair P and Q , the larger recorded pEC50 belongs to which? Record your answer as the label of the chosen record.
P

Reference for the values: patent US20190367516A1
